assay: Lipophilic-hydrophilic balance, Rm of the compound by partition chromatography; assay type: physicochemical
I'd appreciate it if you marked entries 1.0 when Rm is lower than 0.05 and 0.0 when it is not.

Field: example entries. Status: answers known.
C/C(=N\NC(=N)N)c1ccc(NC(=O)Nc2ccc(Nc3c4ccccc4[n+](C)c4cc(N)ccc34)cc2)cc1.Cl.[Cl-] :: 0.0
CCC[n+]1cccc(NC(=O)c2ccc(NC(=O)c3ccc(C(=O)Nc4ccc(C(=O)Nc5ccc[n+](CCC)c5)c(N)c4)cc3)cc2N)c1.Cc1ccc(S(=O)(=O)[O-])cc1.Cc1ccc(S(=O)(=O)[O-])cc1 :: 1.0
C[n+]1ccc(Nc2ccc(C(=O)Nc3ccc(Nc4cc[n+](C)c5ccc(N)cc45)cc3)c(N)c2)cc1.[Br-].[Br-] :: 1.0

Is the reported Rm for "Cc1c(C(=O)Nc2ccc(C(=O)Nc3ccc[n+](C)c3)cc2)ccc(C(=O)Nc2ccc(C(=O)Nc3ccc[n+](C)c3)cc2)c1C.Cc1ccc(S(=O)(=O)[O-])cc1.Cc1ccc(S(=O)(=O)[O-])cc1" strictly below 0.05? 0.0

Just wondering, is Rm of "CCC[n+]1ccccc1Nc1ccc(NC(=O)c2ccc(C(=O)Nc3ccc(Nc4cccc[n+]4CCC)cc3)cc2)cc1.Cc1ccc(S(=O)(=O)[O-])cc1.Cc1ccc(S(=O)(=O)[O-])cc1" below 0.05? 0.0

Quick check: does "COc1cc(NC(=O)c2ccc(C(=O)Nc3ccc(C(=O)Nc4ccc[n+](C)c4)c(OC)c3)cc2)ccc1C(=O)Nc1ccc[n+](C)c1.Cc1ccc(S(=O)(=O)[O-])cc1.Cc1ccc(S(=O)(=O)[O-])cc1" have Rm under 0.05? 0.0

Take the compound "C[n+]1ccc(Nc2ccc(NC(=O)c3ccc(Nc4cc[n+](C)c5cc(N)ccc45)cc3)cc2)cc1.[Br-].[Br-]" and say whether its Rm is less than 0.05. 0.0

Given the entry "CC[n+]1ccc(Nc2ccc(NC(=O)c3ccc(Nc4cc[n+](CC)c5ccccc45)cc3)cc2)cc1.[Br-].[Br-]" , would its reported Rm be below 0.05? 0.0

Check if Rm falls below 0.05 for "CC[n+]1ccc(Nc2ccc(NC(=O)/C=C/c3ccc(/C=C/C(=O)Nc4ccc(Nc5cc[n+](CC)cc5)cc4)cc3)cc2)cc1.Cc1ccc(S(=O)(=O)[O-])cc1.Cc1ccc(S(=O)(=O)[O-])cc1" . 1.0
